Hi there, I'd appreciate the recorded AUC(0-t) for every entry that follows.
Test: Mouse PK analysis (blood/plasma concentration after oral administration)
Assay type: in vivo
Conditions: mouse; mice, oral, plasma
Give the value in µM·h but do not write µM·h after it.

Lab note: C[C@@H](C(=O)N(C)c1ccc2cc(-c3n[nH]c4c3C[C@@H]3C(F)(F)[C@]3(C)C4)[nH]c2c1)N1CCN(CC2CCN(c3cccc4c3n(C)c(=O)n4C3CCC(=O)NC3=O)CC2)CC1 (some centres unmarked) gave AUC(0-t) of 1.38

Lab note: CN(c1ccc2cc(-c3n[nH]c4c3C[C@@H]3C(F)(F)[C@]3(C)C4)[nH]c2c1)C(=O)[C@H]1C[C@]2(CCN(c3ccc4c(c3)C(=O)N([C@H]3CCC(=O)NC3=O)C4=O)C2)C1 (racemic) [Compound 71b] gave AUC(0-t) of 0.78

Lab note: Cn1c(=O)n([C@H]2CCC(=O)NC2=O)c2cccc(N3CCC(CN4CCN(C(=O)c5ccc6cc(-c7n[nH]c8c7CCC(C)(C)C8)[nH]c6c5)CC4)CC3)c21 gave AUC(0-t) of 9.38

Lab note: C[C@@H](C(=O)N(C)c1ccc2cc(-c3n[nH]c4c3CCC(C)(C)C4)[nH]c2c1)N1CCN(C[C@@H]2CCN(c3ccc4c(c3)n(C)c(=O)n4C3CCC(=O)NC3=O)C2)CC1 (some centres unmarked) gave AUC(0-t) of 0.54

Lab note: C[C@@H](C(=O)N(C)c1ccc2cc(-c3n[nH]c4c3C[C@@H]3C(F)(F)[C@]3(C)C4)[nH]c2c1)N1CCN(CC2CCN(c3ccc(C(=O)NC4CCC(=O)NC4=O)nc3)CC2)CC1 (some centres unmarked) gave AUC(0-t) of 1.74

Lab note: C[C@@H](C(=O)N(C)c1ccc2cc(-c3n[nH]c4c3C[C@@H]3C(F)(F)[C@]3(C)C4)[nH]c2c1)N1CCN(C[C@H]2CCN(c3ccc4c(c3)C(=O)N(C3CCC(=O)NC3=O)C4=O)C2)CC1 (some centres unmarked) gave AUC(0-t) of 0.154

Lab note: CN(C(=O)CCC1CCN(c2ccc(C(=O)NC3CCC(=O)NC3=O)nc2)C1)c1ccc2cc(-c3n[nH]c4c3C[C@@H]3C(F)(F)[C@]3(C)C4)[nH]c2c1 (some centres unmarked) gave AUC(0-t) of 1.26

Lab note: C[C@@]12Cc3[nH]nc(C(=O)Nc4cnn([C@H](c5ccccc5)C5CN(C(=O)C6CN(c7ccc(C8CCC(=O)NC8=O)cn7)C6)C5)c4)c3C[C@@H]1C2(F)F (some centres unmarked) gave AUC(0-t) of 2.34
